These measurements were taken from patent US20220265629A1.

- Measurement Protocol: Single ascending oral dose study in healthy volunteers: plasma pharmacokinetics
- Type: in vivo, human
- Measurement Conditions: human, plasma, oral, 100 mg; read-out: Cmax, Median
Parameter: Cmax (ng/mL)
Could you give me the number in ng/mL? Just the number is fine.

Using the record for Cn1cc(S(=O)(=O)[C@@](C)(F)C2CCN(C(=O)Nc3ccon3)CC2)c(C(F)F)n1 , report its Cmax. 983

---

- Measurement Protocol: Single ascending oral dose study in healthy volunteers: plasma pharmacokinetics
- Type: in vivo, human
- Measurement Conditions: human, plasma, oral, 25 mg, 6 Hours Postdose; 25 mg; read-out: Plasma concentration, Median
Parameter: concentration at 6 h (ng/mL)
Answer format: numeric, ng/mL implied, no suffix.

Entry Cn1cc(S(=O)(=O)[C@@](C)(F)C2CCN(C(=O)Nc3ccon3)CC2)c(C(F)F)n1 has what concentration at 6 h? 286

---

- Measurement Protocol: Food effect cross-over study, 200 mg (25 mg tablets), healthy volunteers: plasma pharmacokinetics
- Format: in vivo, human
- Measurement Conditions: human, plasma, oral, 12 hours postdose, Fasted, read-out: Plasma concentration, Median
Parameter: concentration at 12 h (ng/mL)
Just the number in ng/mL, nothing appended.

What value of concentration at 12 h has been reported for the following molecule? Cn1cc(S(=O)(=O)[C@@](C)(F)C2CCN(C(=O)Nc3ccon3)CC2)c(C(F)F)n1 [Compound I] 1800

---

- Measurement Protocol: Food effect cross-over study, 200 mg (25 mg tablets), healthy volunteers: plasma pharmacokinetics
- Type: in vivo, human
- Measurement Conditions: human, plasma, po, single 200 mg oral dose, Fed (N = 10), read-out: Cmax, Geometric Mean
Parameter: Cmax (ng/mL)
Respond numerically; units are ng/mL and should not be typed.

Name the reported Cmax value associated with the molecule Cn1cc(S(=O)(=O)[C@@](C)(F)C2CCN(C(=O)Nc3ccon3)CC2)c(C(F)F)n1 [Compound I] 3640

---

- Measurement Protocol: HFrEF study Part 1 (SAD Cohorts 1 and 2): plasma pharmacokinetics
- Type: in vivo, human
- Measurement Conditions: human, plasma, oral; SAD Cohort 2, 400 mg split dose (n = 4); read-out: AUC0-∞
- Method: Part 1 was a randomized, crossover, DB, placebo-controlled, two-cohort, sequential ascending (oral) single-close study in ambulatory patients with heart failure. […] For each dosing period, patients were admitted to the clinical site on Day −1. Patients were assessed for absence of exclusion criteria (e.g., new lab abnormalities and/or conditions that indicate the patient is clinically unstable). […]
Parameter: AUC(0-inf) (µg·h/mL)
Dear colleague, please return just the value in µg·h/mL, with no unit written.

Fill blank: measured AUC(0-inf) of the compound Cn1cc(S(=O)(=O)[C@@](C)(F)C2CCN(C(=O)Nc3ccon3)CC2)c(C(F)F)n1 is ____. 192

---

- Measurement Protocol: HFrEF study Part 2 (MAD Cohorts A-D): plasma pharmacokinetics
- Assay type: in vivo, human
- Measurement Conditions: human, plasma, oral, 75 mg, MAD Cohort A, 75 mg BID (4 h fasting); individual subjects; read-out: Cmax, SS
Parameter: Cmax (ng/mL)
Your answer is read as ng/mL, so omit the unit and give the number.

Give the measured Cmax of Cn1cc(S(=O)(=O)[C@@](C)(F)C2CCN(C(=O)Nc3ccon3)CC2)c(C(F)F)n1 . 4580
